# measurementDescription: self-splicing fitness, log relative to wild type (ln ratio); higher = more splicing; Tetrahymena group I intron in knt gene, E. coli kanamycin selection, DiMSum; sequences stand for … in CUCUCU…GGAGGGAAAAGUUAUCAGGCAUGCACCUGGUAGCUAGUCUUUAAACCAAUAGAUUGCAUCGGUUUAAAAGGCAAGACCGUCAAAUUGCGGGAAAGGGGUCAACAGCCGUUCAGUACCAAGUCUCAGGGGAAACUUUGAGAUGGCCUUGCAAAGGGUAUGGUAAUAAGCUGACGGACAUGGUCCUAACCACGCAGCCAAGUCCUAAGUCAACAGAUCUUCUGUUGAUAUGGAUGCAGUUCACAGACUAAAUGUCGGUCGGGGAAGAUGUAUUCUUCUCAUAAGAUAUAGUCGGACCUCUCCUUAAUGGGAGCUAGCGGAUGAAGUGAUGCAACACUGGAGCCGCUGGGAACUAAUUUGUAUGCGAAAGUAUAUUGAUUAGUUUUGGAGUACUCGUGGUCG;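 also: selection with 25 µg/mL kanamycin versus none on LB agar overnight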
# testParameters: 37 °C
measure: self-splicing fitness (ln)

[[record]]
sequencecontent = "UCCUAGCAAUAUUACGGGGC"
measure = "self-splicing fitness (ln)"
reportedmeasurement = -2.77

[[record]]
sequencecontent = "CAGUAGCAAUAUUACGAGCC"
measure = "self-splicing fitness (ln)"
reportedmeasurement = -3.14

[[record]]
sequencecontent = "CCUAAGCAAUAUUACGGGCU"
measure = "self-splicing fitness (ln)"
reportedmeasurement = -2.46

[[record]]
sequencecontent = "AAGUAGCAAUAUUACGAGAA"
measure = "self-splicing fitness (ln)"
reportedmeasurement = -2.05

[[record]]
sequencecontent = "CGCAAGCAAUAUUACGCAAC"
measure = "self-splicing fitness (ln)"
reportedmeasurement = -3.11

[[record]]
sequencecontent = "UUCUAGCAAUAUUACGCGUG"
measure = "self-splicing fitness (ln)"
reportedmeasurement = -0.708

[[record]]
sequencecontent = "GCGCAGCAAUAUUACGGCCA"
measure = "self-splicing fitness (ln)"
reportedmeasurement = -1.03

[[record]]
sequencecontent = "GACGAGCAAUAUUACGUUGU"
measure = "self-splicing fitness (ln)"
reportedmeasurement = -2.74

[[record]]
sequencecontent = "CGCUAGCAAUAUUACGGUGA"
measure = "self-splicing fitness (ln)"
reportedmeasurement = -0.996

[[record]]
sequencecontent = "CUGCAGCAAUAUUACGCCGU"
measure = "self-splicing fitness (ln)"
reportedmeasurement = -1.3

[[record]]
sequencecontent = "GCCCAGCAAUAUUACGACGG"
measure = "self-splicing fitness (ln)"
reportedmeasurement = -3.13

[[record]]
sequencecontent = "CUUCAGCAAUAUUACGAACG"
measure = "self-splicing fitness (ln)"
reportedmeasurement = 0.406

[[record]]
sequencecontent = "UUACAGCAAUAUUACGAUGC"
measure = "self-splicing fitness (ln)"
reportedmeasurement = -2.95

[[record]]
sequencecontent = "UCACAGCAAUAUUACGACAC"
measure = "self-splicing fitness (ln)"
reportedmeasurement = -2.71

[[record]]
sequencecontent = "AGUCAGCAAUAUUACGGCGC"
measure = "self-splicing fitness (ln)"
reportedmeasurement = -0.0744

[[record]]
sequencecontent = "CGUGAGCAAUAUUACGAGGA"
measure = "self-splicing fitness (ln)"
reportedmeasurement = -1.65

[[record]]
sequencecontent = "UAUUAGCAAUAUUACGUGCU"
measure = "self-splicing fitness (ln)"
reportedmeasurement = -2.04

[[record]]
sequencecontent = "CGUCAGCAAUAUUACGAUCC"
measure = "self-splicing fitness (ln)"
reportedmeasurement = -0.418

[[record]]
sequencecontent = "AAUUAGCAAUAUUACGGAAA"
measure = "self-splicing fitness (ln)"
reportedmeasurement = -1.72

[[record]]
sequencecontent = "GACAAGCAAUAUUACGCACC"
measure = "self-splicing fitness (ln)"
reportedmeasurement = -0.635

[[record]]
sequencecontent = "UAGGAGCAAUAUUACGCGAU"
measure = "self-splicing fitness (ln)"
reportedmeasurement = -2.68

[[record]]
sequencecontent = "GGCAAGCAAUAUUACGGUGU"
measure = "self-splicing fitness (ln)"
reportedmeasurement = -0.54

[[record]]
sequencecontent = "UUUUAGCAAUAUUACGGCAU"
measure = "self-splicing fitness (ln)"
reportedmeasurement = -0.972

[[record]]
sequencecontent = "CCCUAGCAAUAUUACGAAGU"
measure = "self-splicing fitness (ln)"
reportedmeasurement = -2.89

[[record]]
sequencecontent = "AACGAGCAAUAUUACGCAAA"
measure = "self-splicing fitness (ln)"
reportedmeasurement = -1.9

[[record]]
sequencecontent = "CCGAAGCAAUAUUACGUCAA"
measure = "self-splicing fitness (ln)"
reportedmeasurement = -2.35

[[record]]
sequencecontent = "CCAUAGCAAUAUUACGGGAG"
measure = "self-splicing fitness (ln)"
reportedmeasurement = -2.89

[[record]]
sequencecontent = "CUCUAGCAAUAUUACGAGAG"
measure = "self-splicing fitness (ln)"
reportedmeasurement = -1.69

[[record]]
sequencecontent = "CCUGAGCAAUAUUACGGCAA"
measure = "self-splicing fitness (ln)"
reportedmeasurement = -2.42

[[record]]
sequencecontent = "UGUAAGCAAUAUUACGUGCG"
measure = "self-splicing fitness (ln)"
reportedmeasurement = -0.337

[[record]]
sequencecontent = "GGUGAGCAAUAUUACGCAGA"
measure = "self-splicing fitness (ln)"
reportedmeasurement = -2.52

[[record]]
sequencecontent = "AAGUAGCAAUAUUACGAUCA"
measure = "self-splicing fitness (ln)"
reportedmeasurement = -0.174

[[record]]
sequencecontent = "GAAGAGCAAUAUUACGCCAA"
measure = "self-splicing fitness (ln)"
reportedmeasurement = -2.54

[[record]]
sequencecontent = "GCUCAGCAAUAUUACGGUGC"
measure = "self-splicing fitness (ln)"
reportedmeasurement = -1.29

[[record]]
sequencecontent = "ACAUAGCAAUAUUACGUGUG"
measure = "self-splicing fitness (ln)"
reportedmeasurement = -1.58

[[record]]
sequencecontent = "CCAUAGCAAUAUUACGGCAU"
measure = "self-splicing fitness (ln)"
reportedmeasurement = -1.78

[[record]]
sequencecontent = "GGGUAGCAAUAUUACGGUAC"
measure = "self-splicing fitness (ln)"
reportedmeasurement = -0.23

[[record]]
sequencecontent = "UAACAGCAAUAUUACGUAAA"
measure = "self-splicing fitness (ln)"
reportedmeasurement = -0.884

[[record]]
sequencecontent = "CAGGAGCAAUAUUACGCGGC"
measure = "self-splicing fitness (ln)"
reportedmeasurement = -1.14

[[record]]
sequencecontent = "GUGUAGCAAUAUUACGUUAC"
measure = "self-splicing fitness (ln)"
reportedmeasurement = -2.56

[[record]]
sequencecontent = "AGAUAGCAAUAUUACGAUAG"
measure = "self-splicing fitness (ln)"
reportedmeasurement = -2.31

[[record]]
sequencecontent = "UCAGAGCAAUAUUACGGUAA"
measure = "self-splicing fitness (ln)"
reportedmeasurement = -1.85

[[record]]
sequencecontent = "AAACAGCAAUAUUACGAAGG"
measure = "self-splicing fitness (ln)"
reportedmeasurement = -2.2

[[record]]
sequencecontent = "CUUUAGCAAUAUUACGUGCU"
measure = "self-splicing fitness (ln)"
reportedmeasurement = -2.59

[[record]]
sequencecontent = "GCAUAGCAAUAUUACGAGCA"
measure = "self-splicing fitness (ln)"
reportedmeasurement = -0.718

[[record]]
sequencecontent = "CUACAGCAAUAUUACGUGAG"
measure = "self-splicing fitness (ln)"
reportedmeasurement = -0.926

[[record]]
sequencecontent = "UGUUAGCAAUAUUACGAACU"
measure = "self-splicing fitness (ln)"
reportedmeasurement = 0.216

[[record]]
sequencecontent = "CAUGAGCAAUAUUACGAGCG"
measure = "self-splicing fitness (ln)"
reportedmeasurement = 0.443

[[record]]
sequencecontent = "AGUGAGCAAUAUUACGAUCG"
measure = "self-splicing fitness (ln)"
reportedmeasurement = -0.975

[[record]]
sequencecontent = "AAUUAGCAAUAUUACGGAGG"
measure = "self-splicing fitness (ln)"
reportedmeasurement = -1.87

[[record]]
sequencecontent = "UGCGAGCAAUAUUACGUCAG"
measure = "self-splicing fitness (ln)"
reportedmeasurement = -2.11

[[record]]
sequencecontent = "UUAAAGCAAUAUUACGCUCA"
measure = "self-splicing fitness (ln)"
reportedmeasurement = 0.489

[[record]]
sequencecontent = "UCCCAGCAAUAUUACGAGCG"
measure = "self-splicing fitness (ln)"
reportedmeasurement = -2.02

[[record]]
sequencecontent = "GAAGAGCAAUAUUACGCAGA"
measure = "self-splicing fitness (ln)"
reportedmeasurement = -2.73

[[record]]
sequencecontent = "AAACAGCAAUAUUACGGCGG"
measure = "self-splicing fitness (ln)"
reportedmeasurement = -1.35

[[record]]
sequencecontent = "GAGCAGCAAUAUUACGAUCA"
measure = "self-splicing fitness (ln)"
reportedmeasurement = -1.99

[[record]]
sequencecontent = "UCCCAGCAAUAUUACGAGAA"
measure = "self-splicing fitness (ln)"
reportedmeasurement = -0.452

[[record]]
sequencecontent = "UGGAAGCAAUAUUACGAACG"
measure = "self-splicing fitness (ln)"
reportedmeasurement = -0.592

[[record]]
sequencecontent = "GCCUAGCAAUAUUACGGUGA"
measure = "self-splicing fitness (ln)"
reportedmeasurement = -0.113

[[record]]
sequencecontent = "UUCAAGCAAUAUUACGGCGU"
measure = "self-splicing fitness (ln)"
reportedmeasurement = -0.465

[[record]]
sequencecontent = "CCAAAGCAAUAUUACGCCUG"
measure = "self-splicing fitness (ln)"
reportedmeasurement = -0.707

[[record]]
sequencecontent = "CUAAAGCAAUAUUACGCUAC"
measure = "self-splicing fitness (ln)"
reportedmeasurement = -2.59

[[record]]
sequencecontent = "UGACAGCAAUAUUACGUUAU"
measure = "self-splicing fitness (ln)"
reportedmeasurement = -3.04

[[record]]
sequencecontent = "CUAGAGCAAUAUUACGCAAU"
measure = "self-splicing fitness (ln)"
reportedmeasurement = -3.08

[[record]]
sequencecontent = "GAGCAGCAAUAUUACGCUCA"
measure = "self-splicing fitness (ln)"
reportedmeasurement = -1.91

[[record]]
sequencecontent = "AGAGAGCAAUAUUACGGUCU"
measure = "self-splicing fitness (ln)"
reportedmeasurement = -2.71

[[record]]
sequencecontent = "AUACAGCAAUAUUACGGCGG"
measure = "self-splicing fitness (ln)"
reportedmeasurement = -0.617

